Molecular target: RARβ (Homo sapiens, UniProt P10826)
Construct: gal4 (fusion partner); expressed in transfected cells; host or cells: COS-7
Sequence (P10826 183-417 limits assumed): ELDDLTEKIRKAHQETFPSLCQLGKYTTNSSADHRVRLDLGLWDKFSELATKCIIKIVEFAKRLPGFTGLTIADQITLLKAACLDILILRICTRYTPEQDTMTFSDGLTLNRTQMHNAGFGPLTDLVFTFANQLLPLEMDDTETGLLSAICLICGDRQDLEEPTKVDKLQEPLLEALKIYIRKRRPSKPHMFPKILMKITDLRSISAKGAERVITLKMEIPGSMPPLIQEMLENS
Test: Transactivation assay for RAR beta (gal4-RAR fusion, luciferase reporter, COS-7 cells)
Format: cell-based
Conditions: ratio of test compound EC50 to that of atRA; inactive = no agonist action at the highest concentration tested
Each record's class is read off its RARβ activity ratio using these ranges: range A = under 200, range B = from 200 up to 800, range C = 800 and over

Examples from the recorded data:
>  <Compound>
O=C(O)c1ccc(NC(=O)c2cc(Cl)c(OCc3ccccc3)c(OCc3ccccc3)c2)cc1

>  <Target or system>
RARβ (Homo sapiens, UniProt P10826)

>  <Cat>
range B

$$$$
>  <Compound>
COc1c(OC(C)C)cc(C(=O)Nc2ccc(C(=O)O)cc2)cc1OC(C)C

>  <Target or system>
RARβ (Homo sapiens, UniProt P10826)

>  <Cat>
range B

$$$$
>  <Compound>
CCOc1c(Cl)cc(C(=O)Nc2ccc(C(=O)O)c(C)c2)cc1Cl

>  <Target or system>
RARβ (Homo sapiens, UniProt P10826)

>  <Cat>
range A

$$$$

Returns: class label. Input: CC1=C(/C=C/C(C)=C/C=C/C(C)=C/C(=O)O)C(C)(C)CCC1 [atRA, all trans retinoic acid] range A

Returns: class label. Input: CC(C)Oc1cc(C(=O)Nc2ccc(C(=O)O)cc2)cc(OC(C)C)c1Cl range C

Returns: class label. Input: O=C(O)c1ccc(NC(=O)c2cc(Cl)cc(Cl)c2)cc1 [XXX-03, 4-(3,5-Dichlorobenzamido)benzoic acid, reference compound] range B

Returns: class label. Input: CC(C)Oc1c(Cl)cc(C(=O)Nc2ccc(C(=O)O)cc2)cc1C(F)(F)F range B

Returns: class label. Input: CC(C)Oc1cc(C(=O)Nc2ccc(C(=O)O)c(F)c2)cc(OC(C)C)c1Br range C

---

molecular target: RARα (Homo sapiens, UniProt P10276); construct: gal4 (fusion partner); expressed in transfected cells; host or cells: COS-7; test: Transactivation assay for RAR alpha (gal4-RAR fusion, luciferase reporter, COS-7 cells); format: cell-based; settings: compared with XXX-03
Sequence (P10276 183-417 limits assumed, species assumed): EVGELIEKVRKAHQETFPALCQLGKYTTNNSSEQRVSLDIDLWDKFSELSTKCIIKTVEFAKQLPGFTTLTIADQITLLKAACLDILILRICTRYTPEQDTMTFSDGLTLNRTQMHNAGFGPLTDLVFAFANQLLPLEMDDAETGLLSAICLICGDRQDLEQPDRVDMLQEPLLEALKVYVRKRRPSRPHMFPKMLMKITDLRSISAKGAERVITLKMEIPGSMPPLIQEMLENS
Consider the following molecules and their measured Improvement (RARα/RARβ ratio) readings.

Check out these entries, answers already filled in.
>  <Sample smiles>
O=C(O)c1ccc(NC(=O)c2cc(Cl)c(OC3CCC3)c(Cl)c2)cc1

>  <Target or system>
RARα (Homo sapiens, UniProt P10276)

>  <Improvement (RARα/RARβ ratio)>
~12-fold

$$$$
>  <Sample smiles>
O=C(O)c1ccc(NC(=O)c2cc(Cl)c(OCc3ccccc3)c(Cl)c2)cc1

>  <Target or system>
RARα (Homo sapiens, UniProt P10276)

>  <Improvement (RARα/RARβ ratio)>
~7.4-fold

$$$$
>  <Sample smiles>
O=C(O)c1ccc(NC(=O)c2cc(Cl)c(OCC3CC3)c(Cl)c2)cc1

>  <Target or system>
RARα (Homo sapiens, UniProt P10276)

>  <Improvement (RARα/RARβ ratio)>
~3.5-fold

$$$$

Can you look up Improvement (RARα/RARβ ratio) on RARα (Homo sapiens, UniProt P10276) for CCCOc1c(Cl)cc(C(=O)Nc2ccc(C(=O)O)cc2)cc1Cl ? ~1.3-fold
